- Test system: Artemia
- method: Toxicity against brine shrimp
- Assay type: organism-based
- test settings: in vivo
Recorded LC50 by entry
metric name: LC50 (ppm)

> print(dat)
                                   compound  readout.unit  measured.value
1  C=CC[C@@]12C[C@@H](OC)C(=O)C=C1O[C@@H](c1cc(OC)c(OC)c(OC)c1)[C@H]2C [DYSODANTHIN B]           ppm           334.2
2  C=CC[C@]12C=C(OC)C(=O)C=C1O[C@@H](c1cc(OC)c3c(c1)OCO3)[C@H]2C           ppm           162.1
3  C=CC[C@]1([C@H](C)[C@@H](OC(C)=O)c2cc(OC)c(OC)c(OC)c2)C[C@@H](OC)C=CC1=O [MEGAPHONE ACETATE]           ppm           253.6
4  C=CC[C@@]12C[C@@H](OC)C(=O)C=C1O[C@@H](c1cc(OC)c3c(c1)OCO3)[C@H]2C [DYSODANTHIN A]           ppm           47.53
5  COc1cccc2c1C(=O)c1c(O)c3c(c(O)c1C2=O)C[C@@](O)(C(=O)CO)C[C@@H]3O[C@H]1C[C@H](N)[C@H](O)[C@H](C)O1 [DOXORUBICIN]           ppm            4.05
